All values here come from the supplement of paper PMC10567573.

# key: entry, value: protein stability index
B1: CIB1 (parent)
chain: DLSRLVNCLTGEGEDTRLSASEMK

Variants of: B1
Assay: protein stability index of a GFP-peptide fusion (GPS, HEK-293T) (PSI 1-6); higher = more stable;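 also: lentivirally expressed fusions sorted by FACS into six bins by GFP to DsRed ratio, PSI derived from sequencing read proportions per bin multiplied by bin number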
Conditions: c terminus: a fixed tail appended
Reply: number alone, nothing else.

Use the examples below as a reference point.
Variant string: T10M
Result value: 2.11
//
Variant string: L5P
Result value: 5.06
//
Variant string: E14I
Result value: 2.6
//
Variant string: A20G
Result value: 3.69
//
Variant string: S19C
Result value: 1.89

Next item in the queue.
For N7M , what is its reported protein stability index?
2.09
